Cited source: patent US8173682B2

Measurement Target: recombinantly expressed human PARP-1 enzyme (Homo sapiens, UniProt P09874)
Sequence (P09874 whole entry): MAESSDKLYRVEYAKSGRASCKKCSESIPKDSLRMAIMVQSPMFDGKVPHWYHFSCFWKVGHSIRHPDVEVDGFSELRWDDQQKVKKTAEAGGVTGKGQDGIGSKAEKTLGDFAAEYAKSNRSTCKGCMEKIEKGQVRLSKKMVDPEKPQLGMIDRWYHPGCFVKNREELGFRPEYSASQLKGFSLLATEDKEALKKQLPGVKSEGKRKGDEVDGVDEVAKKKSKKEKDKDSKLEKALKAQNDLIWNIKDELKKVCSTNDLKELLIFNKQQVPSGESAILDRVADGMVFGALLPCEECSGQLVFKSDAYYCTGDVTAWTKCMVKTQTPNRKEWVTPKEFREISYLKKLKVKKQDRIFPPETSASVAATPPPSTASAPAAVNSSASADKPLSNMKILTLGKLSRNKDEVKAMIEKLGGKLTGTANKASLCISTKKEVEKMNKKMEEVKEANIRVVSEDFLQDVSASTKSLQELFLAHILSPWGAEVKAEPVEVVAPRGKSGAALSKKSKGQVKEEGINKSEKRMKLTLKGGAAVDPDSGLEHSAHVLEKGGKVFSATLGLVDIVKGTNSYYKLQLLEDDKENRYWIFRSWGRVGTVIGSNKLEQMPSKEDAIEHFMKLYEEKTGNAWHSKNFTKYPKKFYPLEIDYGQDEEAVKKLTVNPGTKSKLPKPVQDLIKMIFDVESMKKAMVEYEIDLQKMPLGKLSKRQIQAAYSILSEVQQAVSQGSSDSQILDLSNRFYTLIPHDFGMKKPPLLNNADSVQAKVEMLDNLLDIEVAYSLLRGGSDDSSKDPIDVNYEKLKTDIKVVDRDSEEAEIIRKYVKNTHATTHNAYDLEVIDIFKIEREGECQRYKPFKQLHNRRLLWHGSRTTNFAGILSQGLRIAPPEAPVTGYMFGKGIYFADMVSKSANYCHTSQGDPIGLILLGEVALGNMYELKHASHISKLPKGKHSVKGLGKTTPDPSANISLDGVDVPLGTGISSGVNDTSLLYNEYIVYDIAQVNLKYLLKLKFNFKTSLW
Protocol: PARP enzyme assay, Method B (tritium-labeled NAD incorporation)
Assay type: biochemical
Condition Info: Method B; 200 μM NAD, room temperature 1 hour, pH 8.0; read-out: IC50 (μM)/Method B
Structures can show the parent of a compound that is named as a salt.
Attribute Measured: log10 IC50 (log10 of the value in µM)
Scale type: logarithmic (base 10). Underlying IC50 unit: µM.

See these solved cases before continuing.
[
  {
    "Compound": "CCc1cc(-c2ccc(CNCc3ccccc3)o2)c(C)[nH]c1=O [Example 123, hydrochloride]",
    "log10 IC50": -0.24
  },
  {
    "Compound": "CCc1cc(-c2ccc(CNC(=O)C3CCCC3)o2)c(C)[nH]c1=O [Example 269]",
    "log10 IC50": 0.29
  },
  {
    "Compound": "CCc1cc(-c2coc(CN3CCCC3)c2)c(C)[nH]c1=O [Example 181A]",
    "log10 IC50": 0.34
  },
  {
    "Compound": "CCc1cc(-c2cc(C(=O)NCCN3CCOCC3)ccn2)c(C)[nH]c1=O [Example 217]",
    "log10 IC50": 0.46
  },
  {
    "Compound": "CCc1cc(-c2ccc(S(=O)(=O)NCc3ccc(S(C)(=O)=O)cc3)s2)c(C)[nH]c1=O [Example 122C]",
    "log10 IC50": -0.07
  }
]

Q. Indicate its recorded log10 IC50; the compound in question is CCc1cc(-c2ccc(C(=O)NC3CCCC3)cn2)c(C)[nH]c1=O [Example 212]
A. 1.11

Q. Indicate its recorded log10 IC50; the compound in question is CCc1cc(-c2coc(CNCc3ccccn3)c2)c(C)[nH]c1=O [Example 182F]
A. 0.21

Q. Indicate its recorded log10 IC50; the compound in question is CCc1cc(-c2cncc(C(=O)N3CCCC3)c2)c(C)[nH]c1=O [Example 226]
A. -0.02

Q. Indicate its recorded log10 IC50; the compound in question is CCc1cc(-c2cncc(C(=O)NC(c3cccnc3)C3CC3)c2)c(C)[nH]c1=O (centres unmarked) [Example 228]
A. 1.03

Q. Indicate its recorded log10 IC50; the compound in question is CCc1cc(-c2cncc(C(=O)NCc3ccccn3)c2)c(C)[nH]c1=O [Example 221]
A. 0.31

Q. Indicate its recorded log10 IC50; the compound in question is CCc1cc(-c2cncc(C(=O)NCCc3ccccc3O)c2)c(C)[nH]c1=O [Example 232]
A. -0.09

Q. Indicate its recorded log10 IC50; the compound in question is CCc1cc(-c2cncc(C(=O)NC[C@H](C)O)c2)c(C)[nH]c1=O [Example 229]
A. 0.67

Q. Indicate its recorded log10 IC50; the compound in question is CCc1cc(-c2cncc(C(=O)NC3CCCC3)c2)c(C)[nH]c1=O [Example 219]
A. 0.18

Q. Indicate its recorded log10 IC50; the compound in question is CCc1cc(-c2ccc(C=NO)o2)c(C)[nH]c1=O [Example 199A]
A. -0.29

Q. Indicate its recorded log10 IC50; the compound in question is CCc1cc(-c2cncc(C(=O)NCCOC)c2)c(C)[nH]c1=O [Example 261]
A. 0.32

Q. Indicate its recorded log10 IC50; the compound in question is CCc1cc(-c2cc(C(=O)NCCc3ccc([N+](=O)[O-])cc3)ccn2)c(C)[nH]c1=O [Example 213]
A. -0.68

Q. Indicate its recorded log10 IC50; the compound in question is CCc1cc(-c2ccc(CN(Cc3ccccc3)Cc3cccnc3)o2)c(C)[nH]c1=O [Example 182A]
A. 1.24

Q. Indicate its recorded log10 IC50; the compound in question is CCc1cc(-c2cncc(C(=O)NCCc3ccc(OC)cc3)c2)c(C)[nH]c1=O [Example 239]
A. -0.03

Q. Indicate its recorded log10 IC50; the compound in question is CCc1cc(-c2cc(C(=O)NCCc3ccncc3)ccn2)c(C)[nH]c1=O [Example 218]
A. -0.24

Q. Indicate its recorded log10 IC50; the compound in question is CCc1cc(-c2cncc(C(=O)N(CC)Cc3ccncc3)c2)c(C)[nH]c1=O [Example 235]
A. 0.27
